Source: patent US20250270319A1

Relative potency (human/cyno) for assorted binders
# Assayed target: T1, recombinant cynomolgus CD33 protein (NovoProtein) (cynomolgus)
# T1 construct: Bought protein; also called cyno CD33
# T1 sequence (chain, as listed by the source limits assumed): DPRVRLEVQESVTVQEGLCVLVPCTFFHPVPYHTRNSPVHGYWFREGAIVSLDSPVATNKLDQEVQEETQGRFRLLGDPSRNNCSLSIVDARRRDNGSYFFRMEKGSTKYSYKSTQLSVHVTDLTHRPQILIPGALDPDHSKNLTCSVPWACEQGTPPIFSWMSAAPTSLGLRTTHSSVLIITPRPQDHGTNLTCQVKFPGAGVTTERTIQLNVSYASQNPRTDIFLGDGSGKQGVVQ
# Test protocol: ELISA, plate coated with recombinant CD33
Please reply with the number alone, leaving off any unit.

Example cases with answers are listed next.
Binder | Relative potency (human/cyno)
anti-CD33 antibody 6C7H36 (antibody, V domains shown, VH/VL only) VH: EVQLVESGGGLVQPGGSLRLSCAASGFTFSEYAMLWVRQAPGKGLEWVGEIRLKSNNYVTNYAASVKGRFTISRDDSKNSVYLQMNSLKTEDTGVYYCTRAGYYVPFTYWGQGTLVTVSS VL: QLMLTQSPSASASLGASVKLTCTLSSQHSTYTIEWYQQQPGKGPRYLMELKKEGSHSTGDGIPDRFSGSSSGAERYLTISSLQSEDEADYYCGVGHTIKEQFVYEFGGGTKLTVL | 0.03
anti-CD33 antibody 6C7H5 (antibody, V domains shown, Humanized 6C7; VH/VL only; also called parental humanized antibody) VH: EVQLVESGGGLVQPGGSLRLSCAGSGFTFSNYCMNWVRQAPGKGLEWVAEIRLKSNNYVTNYAASVKGRFTISRDDSKNSVYLQMNSLKTEDTGVYYCTRDGYYVPFAYWGQGTLVTVSS VL: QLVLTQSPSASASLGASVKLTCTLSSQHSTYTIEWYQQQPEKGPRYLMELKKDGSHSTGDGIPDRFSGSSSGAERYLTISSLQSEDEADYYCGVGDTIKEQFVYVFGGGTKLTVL | 0.04

Attention now shifts to the item below.
# binder anti-CD33 antibody 6C7H52 (antibody, V domains shown, VH/VL only) VH: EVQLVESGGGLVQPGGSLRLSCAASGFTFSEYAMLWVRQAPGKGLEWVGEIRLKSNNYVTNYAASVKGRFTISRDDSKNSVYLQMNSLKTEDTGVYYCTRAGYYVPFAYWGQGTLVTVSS VL: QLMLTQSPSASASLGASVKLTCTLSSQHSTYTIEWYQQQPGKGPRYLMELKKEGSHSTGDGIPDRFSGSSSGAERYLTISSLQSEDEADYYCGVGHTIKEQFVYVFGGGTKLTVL ; its Relative potency (human/cyno) = 0.14
